molecular target: Platelet-derived growth factor receptor alpha (Homo sapiens); experiment: Inhibition of recombinant human GST-tagged PDGFRalpha cytoplasmic domain (550 to 1089 residues) expressed in baculovirus expression system at 1 uM using FAM-labeled peptide as substrate after 10 mins by mobility shift assay relative to control
# inhibition annotations
Property Name: inhibition (%)

>  <Compound>
COc1ccc(Nc2cc(NC(=O)c3ccccc3)ncn2)cc1

>  <Quantitative Result>
21.7

$$$$
>  <Compound>
COc1cccc(Nc2cc(Nc3cc(OC)ccc3OC)ncn2)c1

>  <Quantitative Result>
26.9

$$$$
>  <Compound>
O=C(O)CCCC(=O)Nc1cc(Nc2cccc(Cl)c2)ncn1

>  <Quantitative Result>
43

$$$$
>  <Compound>
COc1cccc(Nc2cc(NC(=O)CCCC(=O)O)ncn2)c1

>  <Quantitative Result>
8

$$$$
>  <Compound>
O=C(O)CCCC(=O)Nc1cc(N2CCOCC2)ncn1

>  <Quantitative Result>
9.2

$$$$
>  <Compound>
CCOC(=O)c1ccc(Nc2cc(NC(=O)CCCC(=O)O)ncn2)cc1

>  <Quantitative Result>
4.7

$$$$
